- System: cutaneous anaphylaxis
- protocol-details: Passive cutaneous anaphylaxis in rats (method of Ovary), anti-allergic activity
- Assay type: in vivo, rat
- condition-details: Rattus norvegicus; male rats 180-220 g; intravenous, followed immediately by antigen/Evans blue challenge; anti-ovalbumin antiserum ID 3 days before; compounds used as tris(hydroxymethyl)methylamine salts; read-out: ED50 (dose of drug giving 50% inhibition)
Reported log10 of ED50 is given for each of the following compounds.
Scale: decimal log of ED50, ED50 in mg/kg.

GET /values?readout=log10 of ED50&item= CCCCCOc1cc(S(C)(=N)=O)cc2c(=O)c3cc(C(=O)O)ccc3oc12 (stereo not drawn)
-2.46

GET /values?readout=log10 of ED50&item= CCCCCCc1cc(S(C)(=N)=O)cc2c(=O)c3cc(C(=O)O)ccc3oc12 (stereo not drawn)
-2.55
